Origin of values: PubChem BioAssay (NCI)

Assay: NCI Yeast Anticancer Drug Screen. Data for the bub3 strain (AID 167)
Assay Conditions: S. cerevisiae bub3 mutant strain, at 50.0 µM, hits give high values
Compounds without any hit were thinned out: in the full panel of roughly 79,000, 15% have a hit.
Binary call on growth inhibition: condition met from -20% upward, condition not met beneath that.

Compound	Assigned Category
CCOC(=O)Sc1nccn1C	condition met
CC(=O)[C@H]1CC[C@@H]2[C@]1(C)CC1OC13[C@@]21C=C[C@@]2(CC(=O)CC[C@]32C)C2C(=O)OC(=O)C21 (stereo partly specified)	condition met
C[N+](C)(C)C12CCCCCC1SC2 (stereo unspecified)	condition met
COC(=O)C1(C2CCc3cc(OC)ccc3C2=O)NC(=S)NC(=O)C1C#N (stereo unspecified)	condition not met
CC(=O)OCC12CC(c3ccoc3)OC3CCC4C(=O)OC(CC1C)C4(C)C32 (stereo unspecified)	condition not met
